Origin of the recorded values: paper PMC8878748

System: HCoV-229E
Conditions: 2 h
Where a SMILES comes first, the peptide text is derived from it. [ ]: non-standard residue; d: D form. Aic = NC1(C(=O)O)Cc2ccccc2C1
attribute-measured: IC50 (µM)
One number for each entry, in µM.

CC[C@H](C)[C@H](NC(=O)[C@H](CCCNC(=N)N)NC(=O)CNC(=O)[C@@H](CC(C)C)NC(=O)[C@H](Cc1ccccc1)NC(=O)[C@H](CCCCN)NC(=O)[C@H](CO)NC(=O)[C@H](Cc1ccccc1)NC(=O)[C@H](Cc1c[nH]c2ccccc12)NC(=O)[C@@H]1CCCN1C(=O)[C@@H](NC(=O)[C@@H](N)Cc1ccccc1)C(C)C)C(=O)N[C@@H](CC(C)C)C(N)=O [TL1] (H-FVPWFSKF[dL]GRIL-NH2) ... 7.66

Switching to the query record.
Ask: Fill in the recorded IC50 for this molecule, with HCoV-229E as test system: CC[C@H](C)[C@H](NC(=O)[C@H](CCCNC(=N)N)NC(=O)C1(NC(=O)[C@@H](CC(C)C)NC(=O)[C@H](Cc2ccccc2)NC(=O)[C@H](CCCCN)NC(=O)[C@H](CO)NC(=O)[C@H](Cc2ccccc2)NC(=O)[C@H](Cc2c[nH]c3ccccc23)NC(=O)[C@@H]2CCCN2C(=O)[C@@H](NC(=O)[C@@H](N)Cc2ccccc2)C(C)C)Cc2ccccc2C1)C(=O)N[C@@H](CC(C)C)C(N)=O [TL12] (H-FVPWFSKF[dL][Aic]RIL-NH2)
Result: 0.74
